target.under.test: Membrane-associated tyrosine- and threonine-specific cdc2-inhibitory kinase (Homo sapiens, UniProt Q99640)
Sequence (Q99640 whole entry): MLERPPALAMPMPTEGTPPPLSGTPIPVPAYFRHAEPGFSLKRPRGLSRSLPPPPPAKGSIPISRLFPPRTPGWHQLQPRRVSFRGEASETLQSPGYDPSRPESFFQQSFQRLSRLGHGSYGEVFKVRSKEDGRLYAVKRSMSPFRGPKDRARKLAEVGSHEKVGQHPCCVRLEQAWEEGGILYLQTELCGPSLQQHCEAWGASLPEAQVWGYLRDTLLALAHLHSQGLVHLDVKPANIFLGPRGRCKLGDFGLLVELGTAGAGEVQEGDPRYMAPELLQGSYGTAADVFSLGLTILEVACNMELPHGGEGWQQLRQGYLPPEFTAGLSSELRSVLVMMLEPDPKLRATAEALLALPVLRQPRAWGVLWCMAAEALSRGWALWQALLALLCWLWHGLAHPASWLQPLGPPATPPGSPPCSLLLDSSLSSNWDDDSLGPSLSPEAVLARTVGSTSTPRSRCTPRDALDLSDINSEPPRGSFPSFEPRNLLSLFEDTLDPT
experiment.summary: Displacement of (6-FAM)KI(pY)VV from full length PKMYT1 (unknown origin) by fluorescence polarization immuno assay
Form field: IC50 (one value per entry).
I only need the number, in nM, no unit after it.

Known results for molecules:
COc1cnc(Nc2ccc(N3CCOCC3)cc2)nc1Nc1ccc(C)c(O)c1 :: 309
Oc1cccc(Nc2nc(Nc3ccc(N4CCOCC4)cc3)ncc2Cl)c1 :: 617
CSc1cnc(Nc2ccc(N3CCOCC3)cc2)nc1Nc1cccc(O)c1 :: 1550

# input // query IC50 value for entry CNC(=O)c1ccccc1Nc1nc(Nc2ccc(N3CCOCC3)cc2)ncc1OC
# output 955
